# maps each entry to its relative viability
Test system: LCLC-97TM1
experiment.description: relative viability (nuclei count vs DMSO), 5 days (fraction); higher = more cells survive
run.parameters: first compound 2 µM
// return just the number, without any unit appended

Examples with their reported relative viability follow.
molecule	value.measured
COCC1(CO)C(=O)C2CCN1CC2 (stereo not drawn) [PRIMA-1MET] + O=C(c1cc(Cc2n[nH]c(=O)c3ccccc23)ccc1F)N1CCN(C(=O)C2CC2)CC1 [Olaparib] (partner 8 µM)	0.461
COCC1(CO)C(=O)C2CCN1CC2 (stereo not drawn) [PRIMA-1MET] + Cc1cc(Nc2cc(N3CCN(C)CC3)nc(Sc3ccc(NC(=O)C4CC4)cc3)n2)n[nH]1 [Tozasertib] (partner 0.1 µM)	0.325

Turning now to a further molecule:
Query: Given the entry COCC1(CO)C(=O)C2CCN1CC2 (stereo not drawn) [PRIMA-1MET] + NC(=O)Nc1cc(-c2cccc(F)c2)sc1C(=O)N[C@H]1CCCNC1 [AZD7762] (partner 0.2 µM) , what relative viability was observed with LCLC-97TM1?
Reply: 0.212

---

Tested on: SW 900
experiment.description: relative viability (nuclei count vs DMSO), 5 days (fraction); higher = more cells survive
run.parameters: first compound 0.253 µM
measurement.name: relative viability
Please state the value as a number alone, without comment.

compound	relative viability
O=c1cc(-c2cccc3c2Sc2ccccc2S3)oc(N2CCOCC2)c1 + Nc1ncn([C@H]2C[C@H](O)[C@@H](CO)O2)c(=O)n1 [Decitabine] (partner 2 µM)	0.453
O=c1cc(-c2cccc3c2Sc2ccccc2S3)oc(N2CCOCC2)c1 + CCNC(=O)c1noc(-c2cc(C(C)C)c(O)cc2O)c1-c1ccc(CN2CCOCC2)cc1 [Luminespib] (partner 0.01 µM)	0.187

Query: Fill in: relative viability of O=c1cc(-c2cccc3c2Sc2ccccc2S3)oc(N2CCOCC2)c1 + Nc1nc2[nH]cc(CCc3ccc(C(=O)N[C@@H](CCC(=O)O)C(=O)O)cc3)c2c(=O)[nH]1 [Pemetrexed] (partner 0.2 µM) is ___
Reply: 0.492

---

Tested on: BEN
experiment.description: relative viability (nuclei count vs DMSO), 5 days (fraction); higher = more cells survive
run.parameters: first compound 0.03162 µM
measurement.name: relative viability
Output: the number by itself.

Sample records with relative viability:
compound	relative viability
O=c1cc(N2CCOCC2)oc2c(-c3cccc4c3sc3ccccc34)cccc12 + COc1cccc2cc(-c3nc([C@H]4CC[C@H](C(=O)O)CC4)n4ncnc(N)c34)[nH]c12 [OSI-027] (partner 0.5 µM)	0.309
CCN(CC)CCCCNc1ncc2cc(-c3cc(OC)cc(OC)c3)c(NC(=O)NC(C)(C)C)nc2n1 + COc1cc2c(Oc3ccc(NC(=O)C4(C(=O)Nc5ccc(F)cc5)CC4)cc3F)ccnc2cc1OCCCN1CCOCC1 [Foretinib] (partner 0.25 µM)	0.544
CCN(CC)CCCCNc1ncc2cc(-c3cc(OC)cc(OC)c3)c(NC(=O)NC(C)(C)C)nc2n1 + Cc1nc(NC(=O)N2CCC[C@H]2C(N)=O)sc1-c1ccnc(C(C)(C)C(F)(F)F)c1 [Alpelisib] (partner 2 µM)	0.891

// switching to the query compound
Query: Observed relative viability on BEN for CCN(CC)CCCCNc1ncc2cc(-c3cc(OC)cc(OC)c3)c(NC(=O)NC(C)(C)C)nc2n1 + Nc1nc2[nH]cc(CCc3ccc(C(=O)N[C@@H](CCC(=O)O)C(=O)O)cc3)c2c(=O)[nH]1 [Pemetrexed] (partner 0.2 µM) , please.
Reply: 0.681

---

Tested on: IA-LM
experiment.description: relative viability (nuclei count vs DMSO), 5 days (fraction); higher = more cells survive
run.parameters: first compound 1 µM
Form field: relative viability (one value per entry).
Answer with a bare number; do not write a unit.

Worked examples, 2 molecules total:
molecule	relative viability
CCN(CC)CCCCNc1ncc2cc(-c3cc(OC)cc(OC)c3)c(NC(=O)NC(C)(C)C)nc2n1 + C[C@]1(O)C[C@@H](c2nc(-c3ccc4ccc(-c5ccccc5)nc4c3)c3c(N)nccn32)C1 [Linsitinib] (partner 1 µM)	0.506
CCN(CC)CCCCNc1ncc2cc(-c3cc(OC)cc(OC)c3)c(NC(=O)NC(C)(C)C)nc2n1 + CC(C)C[C@H](NC(=O)[C@H](Cc1ccccc1)NC(=O)c1cnccn1)B(O)O [Bortezomib] (partner 0.002 µM)	0.776

Query: Quick check: relative viability on IA-LM, item O=c1cc(N2CCOCC2)oc2c(-c3cccc4c3sc3ccccc34)cccc12 + COc1cc2c(Oc3ccc(NC(=O)C4(C(=O)Nc5ccc(F)cc5)CC4)cc3F)ccnc2cc1OCCCN1CCOCC1 [Foretinib] (partner 0.25 µM) ?
Reply: 1.25

---

Attribute: relative viability
Test system: NCI-H1299
experiment.description: relative viability (nuclei count vs DMSO), 5 days (fraction); higher = more cells survive
run.parameters: first compound 0.2 µM
Kindly provide the number alone.

Query: Missing value: relative viability, NCI-H1299, entry COCC1(CO)C(=O)C2CCN1CC2 (configuration not stated) [PRIMA-1MET] + COc1cc2c(Oc3ccc(NC(=O)C4(C(=O)Nc5ccc(F)cc5)CC4)cc3F)ccnc2cc1OCCCN1CCOCC1 [Foretinib] (partner 0.25 µM) . Fill in?
Reply: 1.13

Query: Look up relative viability with NCI-H1299 for this molecule: COCC1(CO)C(=O)C2CCN1CC2 (configuration not stated) [PRIMA-1MET] + CC1(C)CCC(c2ccc(Cl)cc2)=C(CN2CCN(c3ccc(C(=O)NS(=O)(=O)c4ccc(N[C@H](CCN5CCOCC5)CSc5ccccc5)c(S(=O)(=O)C(F)(F)F)c4)cc3)CC2)C1 [Navitoclax] (partner 0.5 µM)
Reply: 1.14

---

System: A549
experiment.description: relative viability (nuclei count vs DMSO), 5 days (fraction); higher = more cells survive
run.parameters: first compound 0.01 µM
measurement.name: relative viability
Lab note: jot the number down without any unit.

compound	tested.target	measurement.name	value.measured
CCN(CC)CCCCNc1ncc2cc(-c3cc(OC)cc(OC)c3)c(NC(=O)NC(C)(C)C)nc2n1 + Nc1ncn([C@H]2C[C@H](O)[C@@H](CO)O2)c(=O)n1 [Decitabine] (partner 2 µM)	A549	relative viability	0.27

Query: # get_value(readout='relative viability', item= CCN(CC)CCCCNc1ncc2cc(-c3cc(OC)cc(OC)c3)c(NC(=O)NC(C)(C)C)nc2n1 + C[C@]1(O)C[C@@H](c2nc(-c3ccc4ccc(-c5ccccc5)nc4c3)c3c(N)nccn32)C1 [Linsitinib] (partner 1 µM) )
Reply: 0.623

Query: Item under review: O=c1cc(N2CCOCC2)oc2c(-c3cccc4c3sc3ccccc34)cccc12 + Nc1ncn([C@H]2C[C@H](O)[C@@H](CO)O2)c(=O)n1 [Decitabine] (partner 2 µM) . Reported relative viability?
Reply: 0.26

Query: Which relative viability is reported for this compound? CCN(CC)CCCCNc1ncc2cc(-c3cc(OC)cc(OC)c3)c(NC(=O)NC(C)(C)C)nc2n1 + CS(=O)(=O)N1CCN(Cc2cc3nc(-c4cccc5[nH]ncc45)nc(N4CCOCC4)c3s2)CC1 [Pictilisib] (partner 1 µM)
Reply: 0.52

Query: # query: relative viability of entry O=c1cc(N2CCOCC2)oc2c(-c3cccc4c3sc3ccccc34)cccc12 + N=C(N)NC(=N)NCCc1ccccc1 [Phenformin] (partner 250 µM)
Reply: 0.201

---

Tested on: NCI-H1793
experiment.description: relative viability (nuclei count vs DMSO), 5 days (fraction); higher = more cells survive
run.parameters: first compound 8 µM
measurement.name: relative viability
Please reply with the number alone, leaving off any unit.

Query: For the record O=c1cc(-c2cccc3c2Sc2ccccc2S3)oc(N2CCOCC2)c1 + N=C(N)NC(=N)NCCc1ccccc1 [Phenformin] (partner 250 µM) , what value of relative viability is listed for NCI-H1793?
Reply: 0.279

Query: Could you share what relative viability was measured for O=c1cc(-c2cccc3c2Sc2ccccc2S3)oc(N2CCOCC2)c1 + Cc1nc(Nc2ncc(C(=O)Nc3c(C)cccc3Cl)s2)cc(N2CCN(CCO)CC2)n1 [Dasatinib] (partner 0.075 µM) , tested on NCI-H1793?
Reply: 0.386

---

System: HCC-44
experiment.description: relative viability (nuclei count vs DMSO), 5 days (fraction); higher = more cells survive
run.parameters: first compound 0.253 µM
Labelling: relative viability reported below 0.9 becomes Fulfilled; at or above becomes Not fulfilled.

Worked examples, 2 molecules total:
molecule	tested.target	classification
O=c1cc(-c2cccc3c2Sc2ccccc2S3)oc(N2CCOCC2)c1 + NC(=O)Nc1cc(-c2cccc(F)c2)sc1C(=O)N[C@H]1CCCNC1 [AZD7762] (partner 0.2 µM)	HCC-44	Not fulfilled
COc1nc(C)cnc1NS(=O)(=O)c1cccnc1-c1ccc(-c2nnco2)cc1 [Zibotentan] + O=C(CCCCCCC(=O)Nc1ccccc1)NO [Vorinostat] (partner 1 µM)	HCC-44	Not fulfilled

Query: Bench note: check whether COc1nc(C)cnc1NS(=O)(=O)c1cccnc1-c1ccc(-c2nnco2)cc1 [Zibotentan] + Nc1nc2[nH]cc(CCc3ccc(C(=O)N[C@@H](CCC(=O)O)C(=O)O)cc3)c2c(=O)[nH]1 [Pemetrexed] (partner 0.2 µM) shows relative viability below 0.9
Reply: Fulfilled

Query: Check if relative viability falls below 0.9 for O=c1cc(-c2cccc3c2Sc2ccccc2S3)oc(N2CCOCC2)c1 + O=C(c1cc(Cc2n[nH]c(=O)c3ccccc23)ccc1F)N1CCN(C(=O)C2CC2)CC1 [Olaparib] (partner 8 µM) .
Reply: Not fulfilled
